tested on: ATP; experiment: switch fluorescence ratio, 500 uM ATP over buffer (Cy3 cluster intensity, sum of 5 cycles each) (fold (ratio)); higher = stronger signal-on switching upon ATP binding; sequences stand for … in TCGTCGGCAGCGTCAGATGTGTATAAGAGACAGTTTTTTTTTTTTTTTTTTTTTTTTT…TC; settings: aptamer strand: ATP DNA aptamer (quencher-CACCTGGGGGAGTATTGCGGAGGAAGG + anchor), 100 nM annealed; ATP concentration: 500 uM;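 also: ATP exposure 15 min at 22 °C before imaging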
Entries and their measured switch fluorescence ratio follow.
Lab note: write the figure by itself, no unit.

Worked cases, answers included:
* AAGGGTGGTC | 0.957
* TTACTTTTCG | 1.03
* GAGTAAGTA | 1
* TTTCGGATTT | 0.983

# lookup: switch fluorescence ratio of TTGGTGATGT 0.994

Another sequence: CGGTGCGGGC 1

Another sequence: AGAGGAAGGG 0.993
